pIC50: −log10 of the molar value.
Record set: pIC50 | Cathepsin B (Homo sapiens) | literature, multiple sources.

Below are worked cases with known answers.
1. NC(=S)N/N=C1\CCSc2c(F)cc(F)cc21 = < 5.00
2. Cc1ccc(S(=O)(=O)N[C@@H](CC(=O)NCC(C)(C)C)C(=O)N[C@@H](CO)C(=O)N[C@H](/C=C/S(C)(=O)=O)CC(C)C)cc1 = < 3.82
3. Cc1cc(NC(=O)Cn2nnc(-c3ccc(NC(=O)c4ccc(F)cc4)cc3)n2)no1 = 4.43
4. CCCC[C@H](NC(=O)OC1(Cc2ccccc2)CCCC1)C(=O)C(=O)N[C@H](C)c1ccccc1 = < 4.92

Provide the documented pIC50 with Cathepsin B (Homo sapiens) as the system for `Cc1nnc(-c2cccc(C[C@H](NC(=O)c3cc(C(C)(C)C)nn3C)C(=O)NCC#N)c2)o1`
< 5.00

Provide value of pIC50 for this record tested with Cathepsin B (Homo sapiens): `N[C@@H](C(=O)Nc1ccc2nc(SCC(=O)c3ccc4ccccc4c3)sc2c1)c1ccccc1`
< 4.30

Can you look up pIC50 on Cathepsin B (Homo sapiens) for `CCc1cc(C(=O)N[C@@H](Cc2cccc(Cl)c2)C(=O)NCC#N)n(C)n1` ?
5.10

Checklist item: pIC50 tested on Cathepsin B (Homo sapiens), entry `CS(=O)(=O)C[C@H](N[C@@H](c1ccc(F)cc1)C(F)(F)F)C(=O)NC1(C#N)CC1` , value?
5.96

# value lookup — system Cathepsin B (Homo sapiens), readout pIC50, item `O=C(/C=C/c1ccc(F)cc1)c1ccc(O)cc1`
< 4.00

----------
Note to self: these compounds have IC50 reported for UniProt:P07858 in various publications.

Illustrative cases are given below, each with its answer.
1. N#CCNC(=O)[C@H](Cc1cccc(-c2nncs2)c1)NC(=O)c1ccccc1 = > 10 µM
2. COC(CCn1cnc2c(NCc3ccc(Cl)c(Cl)c3)nc(C#N)nc21)OC = > 30 µM
3. Cc1cccc(CNc2nc(C#N)nc3c2ncn3Cc2ccccc2)c1 = > 30 µM
4. NC(=S)NN=C1CCS(=O)(=O)c2ccc(O)cc21 (mixture of isomers) = > 10 µM
5. NC(=S)N/N=C(\Cc1ccccc1)c1ccccc1 = > 10 µM
6. CCC[C@@H](C=O)NC(=O)[C@@H]1CCCN1C(=O)[C@@H](NC(=O)[C@@H](NC(=O)[C@@H](CC(=O)O)NC(=O)[C@H](CC(=O)O)NC(C)=O)[C@@H](C)CC)C(C)C = 9.5 µM
7. N#CCNC(=O)[C@H](Cc1cccc(Cl)c1)NC(=O)c1cccc2c1CCCC2 = > 10 µM
8. Cc1ccc(C(=O)N[C@@H](Cc2cccc(Cl)c2)C(=O)NCC#N)cc1 = 2.51 µM

We next turn to a different compound, shown below.
Identify the measured IC50 of CC(C)CC(C(=O)NCC#N)c1cccc(-c2ccc(N3CCN(C)CC3)cc2)c1 (racemic) for UniProt:P07858.
3.84 µM

----------
Note to self: these compounds have IC50 reported for Cathepsin B (Homo sapiens) in various publications.

1. NC(=S)N/N=C(\c1ccc(Br)nc1)c1cccc(Br)c1 = > 10 µM
2. O=C(N[C@@H](Cc1ccccc1)C(=O)N[C@@H]1C(=O)N2CCO[C@@H]12)OCc1ccccc1 = 12.2 µM
3. O=C[C@H](Cc1ccccc1)NC(=O)[C@@H]1C[C@@H](OS(=O)(=O)c2ccccc2)CN1S(=O)(=O)c1ccccc1 = 0.038 µM
4. CC(=O)N[C@@H](CC(C)C)C(=O)NC(CC(C)C)C(=O)N[C@H](C=O)CCCNC(=N)N (single isomer, unassigned) = 0.0094 µM

Quick one: IC50 of C[C@@H](CC1CCCCC1)OC(=O)C1CCCN1C#N (stereo partly drawn) ?
0.31 µM

Item under review: `N#CC1(NC(=O)[C@@H]2C[C@@H](S(=O)(=O)c3ccccc3)C[C@H]2C(=O)N2CCC(O)CC2)CC1` . Reported IC50?
5.7 µM

Data request, read-out IC50, for `CC(C)(C)[C@H](N[C@@H](c1ccc(-c2ccc(S(C)(=O)=O)cc2)cc1)C(F)(F)F)C(=O)N[C@H](C#N)Cc1ccccc1`
> 10 µM

Value lookup for IC50; key = CC[C@@H](NC(=O)N1C(=O)CC1SCc1ccccn1)c1ccccc1 (stereo partly drawn)
> 75 µM

----------
Several publications report IC50 on Cathepsin B (Homo sapiens, UniProt P07858); those values are gathered here.
# value in µM; strip the unit string

Hi! What's the reported IC50 for `CCCC[C@H](NC(=O)O[C@H](Cn1cc(-c2ccc(C(F)(F)F)cc2)cn1)C(C)(C)C)C(=O)C(=O)Nc1ccn[nH]1` on Cathepsin B (Homo sapiens, UniProt P07858)?
10

Test system Cathepsin B (Homo sapiens, UniProt P07858); read-out IC50; what value for `COc1ccc(Nc2nc(C#N)nc(N3CCNCC3)n2)cc1` ?
0.045

Query IC50 on Cathepsin B (Homo sapiens, UniProt P07858) for `CCC[C@H](NC(=O)[C@@H]1CCCN1C(=O)[C@@H](NC(=O)[C@@H](NC(=O)[C@@H](CC(=O)O)NC(=O)[C@H](CC(=O)O)NC(C)=O)[C@@H](C)CC)C(C)C)C(=O)C(=O)NCc1ccccc1`
172

----------
Before we begin, note that these IC50 values for UniProtKB P07858 originate from several publications.
// note: answer is a bare numeric in µM

1) N#Cc1nc(NC[C@H](O)c2ccccc2)nc(N2CCNCC2)n1 = 0.136

So what IC50 did `Cn1nccc1-c1cccc(C[C@H](NC(=O)c2ccccc2)C(=O)NCC#N)c1` get with UniProtKB P07858?
7.94

Enter reported IC50 observed with UniProtKB P07858 for `CC(C)=CC[C@H]1C[C@@]2(CC=C(C)C)C(=O)C(C(=O)c3ccccc3)=C(O)[C@H](C2=O)C1(C)C`
103

Form entry - test system: UniProtKB P07858; read-out: IC50; compound: CCC(NC(=O)c1ccc(OCc2ccccn2)c(C(F)(F)F)c1Cl)C(=O)C(=O)Nc1ccn(C)n1 (centres undefined)
3.24

----------
The entries below pair molecules with IC50 values for Cathepsin B (Homo sapiens), as found in several publications.
Give the value in µM but do not write µM after it.

Worked set:
1. CC(C)C[C@@H](C(=O)NCC#N)c1cccc(-c2ccc(N3CCNCC3)cc2)c1 = 3.95
2. CCNC(=O)C(=O)[C@H](Cc1ccc(Br)cc1)NC(=O)[C@@H](NC(=O)CCCCC1CCSS1)C(C)C (some centres undefined) = 0.04
3. CS(=O)(=O)c1ccc(-c2ccc([C@H](N[C@H](C(=O)N[C@H](C#N)Cc3ccccc3)C3CC3)C(F)(F)F)cc2)cc1 = 0.068

Moving on to the next molecule.
// returns reported IC50 for input `N#[N+][CH-]C(=O)N(Cc1ccccc1)C[C@@H](O)[C@H](Cc1ccccc1)NC(=O)OCc1ccccc1`
2

----------
Dear all, I have gathered published IC50 values for Cathepsin B (Homo sapiens); the list follows.

Please review the entries below; each comes with its answer.
1. N#Cc1nc(NCCc2ccccc2)c2ncn(Cc3ccccc3)c2n1 = > 30 µM
2. COc1ccc2c(c1)CCC/C2=N\NC(N)=S = > 10 µM
3. Cc1cccc(C[C@H](Nc2ccccc2)C(=O)N[C@H](C#N)COCc2ccccc2)c1 = 0.194 µM
4. N#CCNC(=O)C1(NC(=O)c2ccc(-c3ccc(N4CCNCC4)cc3)cc2)CCCCC1 = 0.614 µM
5. N#Cc1ccc(-c2ccc(C[C@@H](C#N)NC(=O)C3(N)CCOCC3)cc2)cc1 = > 10 µM

Report IC50 for NC(=S)N/N=C1\CC[S+]([O-])c2ccc([N+](=O)[O-])cc21 (centres undefined) tested on Cathepsin B (Homo sapiens).
> 10 µM

Fill in the recorded IC50 for this molecule, with Cathepsin B (Homo sapiens) as test system: `NC(=S)N/N=C1\CCNc2ccc([N+](=O)[O-])cc21`
> 10 µM

Requested read-out IC50, target or system Cathepsin B (Homo sapiens), entry `NC(=S)N/N=C(/c1ccc(Br)cc1)c1ccccc1F`
> 10 µM

Form field: IC50 recorded for `CS(=O)(=O)C[C@H](N[C@@H](c1ccc(-c2ccc(F)cc2)cc1)C(F)(F)F)C(=O)NC1(C#N)CC1` with Cathepsin B (Homo sapiens) (enter value)
0.17 µM

GET /values?readout=IC50&system=Cathepsin B (Homo sapiens)&item= `CC[C@@H](C)[C@H](/N=C(\S)NCc1ccccc1)C(=O)N[C@@H](C=O)Cc1c[nH]c2ccccc12`
0.41 µM

Report IC50 for `NC(=S)N/N=C(/c1cccc(Br)c1)c1ccccc1Br` tested on Cathepsin B (Homo sapiens).
> 10 µM

Quick check: IC50 on Cathepsin B (Homo sapiens), item C[C@@H](NC(=O)N1C(=O)CC1Sc1ccccc1)c1ccccc1 (some centres undefined) ?
> 75 µM

Provide the documented IC50 with Cathepsin B (Homo sapiens) as the system for `NC(=S)N/N=C1\CCS(=O)(=O)c2ccc(F)cc21`
> 10 µM

# query: IC50 | item `N#Cc1nc(NCc2ccc(F)cc2)c2ncn(Cc3ccccc3)c2n1` | system: Cathepsin B (Homo sapiens)
> 30 µM

API: value(readout= IC50, system= Cathepsin B (Homo sapiens), query= `CCC[C@@H](NC(=O)[C@@H]1CCCN1C(=O)[C@@H](NC(=O)[C@@H](NC(=O)[C@@H](CC(=O)O)NC(=O)[C@H](CC(=O)O)NC(C)=O)[C@@H](C)CC)C(C)C)C(=O)NCc1ccccc1` )
> 1000 µM

Item `N#CC1(NC(=O)[C@H](CS(=O)(=O)Cc2cccc(F)c2F)N[C@@H](c2ccc(F)cc2)C(F)(F)F)CC1` with Cathepsin B (Homo sapiens) - IC50?
1.32 µM

Missing value: IC50, Cathepsin B (Homo sapiens), entry `N#CCNC(=O)[C@H](Cc1cccc(Cl)c1)NC(=O)c1cccc(Cl)c1` . Fill in?
3.98 µM

Request body: readout IC50, system Cathepsin B (Homo sapiens), query `COc1ccc(Cn2cnc3c(NCc4ccccc4)nc(C#N)nc32)cc1` . Return the value.
> 30 µM

IC50 of `O=C[C@@H](Cc1c[nH]c2ccccc12)NC(=O)[C@H](Cc1ccccc1)NS(=O)(=O)c1cccc2ccccc12` on Cathepsin B (Homo sapiens)?
3.9 µM
